Cited source: patent US5854081A

# SYSTEM: recombinant human native-A2A adenosine receptor (Homo sapiens, UniProt P29274)
# Sequence (P29274 whole entry): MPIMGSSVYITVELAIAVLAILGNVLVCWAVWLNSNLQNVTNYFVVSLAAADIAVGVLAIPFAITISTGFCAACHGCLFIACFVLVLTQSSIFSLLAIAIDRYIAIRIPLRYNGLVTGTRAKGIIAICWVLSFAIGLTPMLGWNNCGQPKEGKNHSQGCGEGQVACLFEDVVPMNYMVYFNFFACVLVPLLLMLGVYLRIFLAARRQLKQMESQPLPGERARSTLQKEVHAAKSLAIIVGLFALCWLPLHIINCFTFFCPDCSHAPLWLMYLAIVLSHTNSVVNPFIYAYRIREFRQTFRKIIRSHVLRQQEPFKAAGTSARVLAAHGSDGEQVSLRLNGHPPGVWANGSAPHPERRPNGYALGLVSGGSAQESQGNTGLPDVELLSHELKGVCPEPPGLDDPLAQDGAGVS
# RUN DESCRIPTION: Competition for radioligand binding, native-A2A
# COND: read-out: K1, competition with 70 nM [^3 H]NECA
EXPERIMENTAL ENDPOINT: Ki (nM)

1. CCCn1c(=O)c2nc(-c3ccc(OCC(=O)O)cc3)[nH]c2n(Cc2ccc(N)c(I)c2)c1=O ... 23.7

====

# SYSTEM: recombinant human H/F-A1 adenosine receptor (Homo sapiens)
# Sequence (P30542 with tags, fused parts or gaps): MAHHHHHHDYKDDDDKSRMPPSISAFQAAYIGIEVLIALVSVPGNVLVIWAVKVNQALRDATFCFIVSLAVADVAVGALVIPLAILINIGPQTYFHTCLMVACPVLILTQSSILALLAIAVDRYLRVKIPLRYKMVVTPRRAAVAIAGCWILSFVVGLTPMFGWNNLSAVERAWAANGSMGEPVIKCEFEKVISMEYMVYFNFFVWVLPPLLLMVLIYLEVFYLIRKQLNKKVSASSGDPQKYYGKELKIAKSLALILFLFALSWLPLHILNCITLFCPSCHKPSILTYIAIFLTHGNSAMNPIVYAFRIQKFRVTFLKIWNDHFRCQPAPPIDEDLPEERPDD
# RUN DESCRIPTION: Saturation radioligand binding, H/F-A1 (CHO-K1 membranes)
# COND: ^125 I-ABA: high affinity sites
EXPERIMENTAL ENDPOINT: Kd

1) Nc1ccc(CNc2ncnc3c2ncn3[C@@H]2O[C@H](CO)[C@@H](O)[C@H]2O)cc1I [^125 I-ABA] ... 980 pM
